biological target: HLA-A*01:01; test: IEDB peptide-MHC binding, purified MHC/direct/fluorescence; filed as Kd, often an IC50 or EC50 that approximates it; bounds were set here for any values at or beyond the usual limits of such assays; conditions: source organism: Salmonella enterica
Metric: Kd

Q. What value of measured Kd is listed for AHSKAETEA ?
A. ≥ 20 µM

====

biological target: HLA-B*15:01; assay: IEDB peptide-MHC binding, purified MHC/competitive/radioactivity; filed as Kd, often an IC50 or EC50 that approximates it; bounds were set here for any values at or beyond the usual limits of such assays; settings: source organism: Dengue virus 3 Sri Lanka/1266/2000
Metric: Kd (nM)
Respond numerically; units are nM and should not be typed.

Q. Consider the sequence LMMILPAAL and give its measured Kd.
A. 13.6

====

Reported Kd by item:
molecular target: HLA-B*44:03; assay: IEDB peptide-MHC binding, purified MHC/competitive/radioactivity; filed as Kd, often an IC50 or EC50 that approximates it; bounds were set here for any values at or beyond the usual limits of such assays; conditions: source organism: Dengue virus 2 Jamaica/1409/1983
Write the figure, then the unit, nothing else.

| Chain | Readout value |
| --- | --- |
| SEFQIYKKS | 825 nM |

Q. So what's the measured Kd for this one? AETQHGTIV
A. 225 nM

Q. Name the reported Kd value associated with the sequence TEEIAVQNW
A. 36.8 nM

Q. Which Kd value belongs to LENDEDCAHW ?
A. 103 nM

====

molecular target: HLA-B*58:01; assay: IEDB peptide-MHC binding, purified MHC/direct/fluorescence; filed as Kd, often an IC50 or EC50 that approximates it; bounds were set here for any values at or beyond the usual limits of such assays; conditions: source organism: Mycobacterium tuberculosis variant bovis
Metric: pKd
Keep in mind that pKd stands for -log10 of concentration in molar terms.

Q. Recorded pKd for TTTYKAFDW , please?
A. 7.15

====

target: HLA-A*23:01; experiment: IEDB peptide-MHC binding, purified MHC/direct/fluorescence; filed as Kd, often an IC50 or EC50 that approximates it; bounds were set here for any values at or beyond the usual limits of such assays; conditions: source organism: Orthohantavirus dobravaense
Metric: pKd
Entry type: numeric. Quantity: pKd, the -log10 of concentration in molar units.

Q. Consider the sequence YYTEDQGQF and give its measured pKd.
A. 7.87

====

molecular target: HLA-A*31:01; test: IEDB peptide-MHC binding, purified MHC/direct/fluorescence; filed as Kd, often an IC50 or EC50 that approximates it; bounds were set here for any values at or beyond the usual limits of such assays; conditions: source organism: Mammarenavirus lassaense
Metric: Kd

Q. Using the record for GYAWIDFDI , report its Kd.
A. ≥ 20 µM

====

target: HLA-A*26:01; test: IEDB peptide-MHC binding, purified MHC/competitive/radioactivity; filed as Kd, often an IC50 or EC50 that approximates it; bounds were set here for any values at or beyond the usual limits of such assays; details: source organism: Lymphocytic choriomeningitis virus (strain WE)
Metric: Kd

Q. What value of Kd has been recorded for this entry: LTDNDDILM
A. ≥ 47.4 µM

====

target: HLA-A*02:01; assay: IEDB peptide-MHC binding, purified MHC/direct/fluorescence; filed as Kd, often an IC50 or EC50 that approximates it; bounds were set here for any values at or beyond the usual limits of such assays; conditions: source organism: Rickettsia sibirica 246
pKd: −log10 of the molar value.
Metric: pKd

Q. For the sequence APVESMALF , what pKd is on record?
A. ≤ 4.70
